Origin of measurements: PubChem BioAssay (NCI)

Tested on: UO-31 renal
Test: NCI tumour cell line growth inhibition, 48 h

| mol | GI50 |
| --- | --- |
| O=C1OC(c2cccc(C(F)(F)F)c2)(c2cccc(C(F)(F)F)c2)c2ccc3ccccc3c21 | > 100 µM |
| CCCCCCC[CH2][Sn]([Cl])([Cl])[CH2]CCCCCCC | 10.6 µM |
| Cn1cc(C2=C(c3cn(C)c4ccc(OCc5ccccc5)cc34)C(=O)NC2=O)c2ccccc21 | > 25 µM |
| C=C(CN1CCc2ccccc2C1)c1ccc(CCC(=O)Nc2ccccc2N)cc1 | 12 µM |
| O=C1C=C(Nc2ccc([N+](=O)[O-])cc2)c2ccccc2C1=O | 1.85 µM |
| CC(C)OC(=O)Nc1ccc(-c2nc(-c3cccc(OCCN4CCOCC4)c3)c(-c3ccnc(Br)c3)[nH]2)cc1 | 2.84 µM |

* * *

Tested on: HOP-92 NSCLC
Experiment: NCI tumour cell line growth inhibition, 48 h
propertyName: TGI

| molecule | propertyName | measuredValue |
| --- | --- | --- |
| C/C(O)=c1\cc(C#N)c(=C(C#N)C#N)nc1C | TGI | > 100 µM |
| COC(=O)c1ccc2[nH]c(O)c(C(=Nc3ccc(N(C)C(=O)CN4CCN(C)CC4)cc3)c3ccc(OC)cc3)c2c1 | TGI | 15.2 µM |
| Cc1cn(C2CC(Br)C(COC(c3ccccc3)(c3ccccc3)c3ccccc3)O2)c(=O)[nH]c1=O (centres undefined) | TGI | 24.6 µM |
| O=C1C=CC(=O)C(c2cc(-c3ccc(Cl)cc3)nn2-c2ccccc2)=C1 | TGI | 67.2 µM |
| CC(=O)c1c(SCCN2CCCCCC2)n(-c2ccccc2)c(=S)n(-c2ccccc2)c1=O | TGI | 20.1 µM |
| C[C@]12CC[C@@H]3c4ccc(O)cc4CC[C@H]3[C@@H]1CC[C@@H]2NS(=O)(=O)c1cccc(OC(F)(F)F)c1 | TGI | 3.95 µM |
| CC(C)(NO)/C(=N\O)c1ccco1 | TGI | > 100 µM |
| CC(=O)N1CCN([C@H]2CCC[C@@H](NC(=O)c3cc4c(F)ccc(C)c4[nH]3)C2)CC1 | TGI | > 100 µM |
| COc1ccc2c3c([nH]c2c1CC=C(C)C)C(=O)C=C(C)C3=O | TGI | > 25 µM |

* * *

System: HOP-92 NSCLC
Test: NCI tumour cell line growth inhibition, 48 h
Each entry below carries its recorded TGI.

| molecule | censoringQualifier | TGI, µM |
| --- | --- | --- |
| CC(=O)Nc1cccc(C#Cc2cncnc2Nc2ccc(OCc3cccc(F)c3)c(Cl)c2)n1 | = | 18.2 |
| C=CC(=O)N1CC2(CCC(n3nc(-c4ccc(Oc5ccccc5)cc4)c4c(N)ncnc43)CC2)C1 | = | 0.366 |
| COc1ccc(C2c3c(n(C)c(=O)n(C)c3=O)OC(N(C)C)(N(C)C)C2(F)F)cc1 (stereo not given) | > | 100 |
| COc1cc(/C=C2\N=C(c3ccccc3)N(c3cc4cc(Sc5ccccc5)ccc4[nH]3)C2=O)cc(OC)c1OC | = | 29.8 |
| O=C(O)c1ccc(C=C2Sc3ccccc3S2)cc1 | > | 100 |

* * *

Each entry below carries its recorded TGI.
System: SF-539 CNS
Test: NCI tumour cell line growth inhibition, 48 h
Where a SMILES comes first, the peptide text is derived from it. Bridges are numbered along the chain shown (N, C = ends). [ ]: non-standard residue; d: D form. The star is where a group is joined. Cya = N[CH](CS(=O)(=O)O)C(=O)O; X49 = CC(C)CCCCCCCC(O)CC(=O)*; GABA = NCCCC(=O)O

| molecule | TGI |
| --- | --- |
| CC(C)CCCCCCCC(O)CC(=O)NC(CS(=O)(=O)O)C(=O)NC(CC(C)C)C(=O)NCCCC(=O)NC(Cc1cnc[nH]1)C(=O)NC(C)C(=O)NC1C(=O)NC(C(C)O)C(=O)NC(Cc2cnc[nH]2)C(=O)NC(C)C(=O)NC(C(C)O)C(=O)OC1C (centres undefined) (X49-[Cya]L[GABA]HATTHAT; ester 6-C; configuration not given here) | > 25 µM |
| O=C1Nc2ccc(Br)cc2C1=Nc1ccc2c(c1)OCO2 | 37.3 µM |
| COc1ccc(C2c3c(n(C)c(=O)n(C)c3=O)OC(N(C)C)(N(C)C)C2(F)F)cc1 (centres undefined) | > 100 µM |
| O=C(OC1C=C=CS(=O)(=O)CC#C/C=C\1)c1cnc2ccccc2n1 (centres undefined) | > 100 µM |
| CCN(CC)S(=O)(=O)c1ccc2nc(NC(=O)OC)[nH]c2c1 | 74.3 µM |
| CC(C)=C1C(=O)c2c(Cl)sc(Cl)c2C1=O | 50.5 µM |
| Cc1ccc(-c2c3c(nn2-c2ccc(S(=O)(=O)NC(=O)Nc4ccccc4)cc2)-c2ccccc2C3)cc1 | 38.9 µM |
| CC1=CP(=O)(OC(C)C)CC(C)=C1Cl (centres undefined) | > 100 µM |
| C[C@]12CCC3[C@@H](CC[C@@H]4c5nonc5CC[C@]34C)C1CCC2=O (some centres undefined) | 45.9 µM |
| CCOC(=O)C1=NC(c2ccccc2)(c2ccccc2)OC1=C(Cl)Cl | > 100 µM |
| CC(C)CC(N=Cc1nc(-c2ccccc2)oc1O)C(=O)O (centres undefined) | > 100 µM |
| CCOC(=O)c1ccc2c(c1)c1c(C)c3cnccc3c(C)c1n2C | 1.07 µM |
| CCOC(=O)C1=CC(C)(C(=O)OCC)Nc2c(nc(SC)[nH]c2=O)N1 (centres undefined) | > 10 µM |
| C/C(=C\CO)CC/C=C(\C)CNc1ccccc1 | > 100 µM |
| COc1ccc([C@H]2[C@H](C)C3=Nc4ccccc4CN32)cc1 | > 100 µM |
| CCCCSC(=CC(=O)c1cccc(C(=O)C=C(SCCCC)SCCCC)n1)SCCCC | > 100 µM |
| O/N=C(\C(=N/O)Nc1ccc(-c2ccc(NC(=N/O)/C(=N\O)c3ccccc3)cc2)cc1)c1ccccc1 | 35.3 µM |
| O=C(CC(=O)Nc1ccc(C(=O)O)cc1)Nc1ccc(C(=O)O)cc1 | > 100 µM |
| COc1cc(C(C)c2cc3c(cc2OCCN)OCO3)cc(OC)c1OC (centres undefined) | > 100 µM |

* * *

Test system: 786-0 renal
Test: NCI tumour cell line growth inhibition, 48 h
Each entry below carries its recorded TGI.

| molecule | TGI |
| --- | --- |
| CC(C)(C)OCC1NC(=O)[C@@H]2Cc3c([nH]c4ccccc34)C(C3CCCCC3)N2C1=O (stereo partly drawn) | 50.2 µM |
| COc1ccc(/C=C/C(=O)c2ccc(NC(=O)CSc3nnc(-c4ccc(OC)c(OC)c4)n3-c3ccccc3)cc2)cc1 | 3.66 µM |
| CN(C)c1nc(N(C)C)sc(=O)n1 | > 100 µM |
| Clc1ccc(Cl)c(NNc2cc(Cl)ccc2Cl)c1 | > 10 µM |
| O=c1nc2n(c3nsnc13)CCO2 | > 100 µM |
| COC(=O)c1cc(CC2Cc3cc4c(cc3C2)CCC4)cc2c1CCC2 | > 100 µM |
| ClCc1nn(-c2ccccc2)c(CCl)c1CCl | 8.77 µM |
| CCOP(=O)(OCC)/C(C#N)=C/c1coc2cc(C)cc(C)c2c1=O | > 100 µM |

* * *

// endpoint GI50 / system NCI-H23 lung
propertyName: GI50

| compound | measuredValue |
| --- | --- |
| CCC[CH2][Sn]1([CH2]CCC)[O]CC(c2ccccn2)C[O]1 | 17.1 µM |
| CC/C(=C(\c1ccc(Cl)cc1)c1ccc(OCCN2CCCCC2)cc1)c1ccc(O)cc1 | 1.88 µM |
| COc1ccc(C(O)c2cc3c(N)c(C(=O)Nc4ccc(Br)cc4)sc3nc2C)cc1 (configuration not stated) | 6.11 µM |
| Clc1nc(Cl)c2ncn(CC#CCn3cnc4c(Cl)nc(Cl)nc43)c2n1 | 3.05 µM |
| CCN(CC)CCNc1ccc(C)c2sc3ccccc3c(=O)c12 (tested in a mixture with another compound) | 2.32 µM |
| Cc1ccc2c(c1)c(C1=C(c3cn(C)c4ccccc34)C(=O)NC1=O)cn2C | 4.9 µM |
| COc1cc(C(=O)/C=C/c2c(C)n([O-])c3ccc(C(F)(F)F)cc3[n+]2=O)cc(OC)c1OC | 3.8 µM |
| CCCCCCC[CH2][Sn]([Cl])([Cl])[CH2]CCCCCCC | 6.84 µM |
| CC#CC#Cc1cccc(=O)o1 | 5.97 µM |
| Nc1nonc1-c1nc2cnccc2n1C1CCCCC1 | > 18.5 µM |
| Cc1cc2nc3c4cc(C=O)ccc4n(CCN(C)C)c3nc2cc1C | 1.49 µM |
| C/C(Cc1ccc(Cl)cc1)=C(\c1ccc(OCCN2CCCCCC2)cc1)c1ccc(OC(=O)c2ccccc2)cc1 | 4.69 µM |
